Assay: Ferric reducing antioxidant power (FRAP) assay
Format: biochemical
Conditions: mean ± SD, n = 3; concentration equivalent to FeSO4 at 0.5 mmol/L; 37°C, 30 min, 593 nm
// label = 1.0 if FRAP assay (C0.5FRAP) is not less than 600 µM, otherwise 0.0

>  <MOLECULE>
Cc1ccc2c(c1)N/C(=C\C(=O)c1ccc([N+](=O)[O-])cc1)C(=O)O2 [Compound 20r]

>  <LABEL VALUE>
0.0

$$$$
>  <MOLECULE>
O=C1Oc2cc([N+](=O)[O-])ccc2N/C1=C\C(=O)c1ccc(F)cc1 [Compound 20x]

>  <LABEL VALUE>
1.0

$$$$
>  <MOLECULE>
O=C1Oc2ccc(Cl)cc2N/C1=C\C(=O)c1ccc(Br)cc1 [Compound 20g]

>  <LABEL VALUE>
1.0

$$$$
>  <MOLECULE>
Cc1cc(C(C)(C)C)c(O)c(C(C)(C)C)c1 [BHT, reference compound]

>  <LABEL VALUE>
0.0

$$$$
>  <MOLECULE>
O=C1Oc2ccccc2N/C1=C\C(=O)c1ccc([N+](=O)[O-])cc1 [Compound 20s]

>  <LABEL VALUE>
1.0

$$$$
>  <MOLECULE>
COc1ccc(C(=O)/C=C2\Nc3ccccc3OC2=O)cc1 [Compound 20b]

>  <LABEL VALUE>
1.0

$$$$
>  <MOLECULE>
Cc1ccc2c(c1)N/C(=C\C(=O)c1ccc(F)cc1)C(=O)O2 [Compound 20j]

>  <LABEL VALUE>
0.0

$$$$
>  <MOLECULE>
O=C1Oc2ccc(Cl)cc2N/C1=C\C(=O)c1ccc(F)cc1 [Compound 20d]

>  <LABEL VALUE>
1.0

$$$$
>  <MOLECULE>
O=C1Oc2cc([N+](=O)[O-])ccc2N/C1=C\C(=O)c1ccc(Br)cc1 [Compound 20aa]

>  <LABEL VALUE>
0.0

$$$$
>  <MOLECULE>
Cc1cc(Br)c2c(c1)N/C(=C\C(=O)c1ccc(F)cc1)C(=O)O2 [Compound 20n]

>  <LABEL VALUE>
0.0

$$$$
>  <MOLECULE>
O=C1Oc2ccc([N+](=O)[O-])cc2N/C1=C\C(=O)c1ccc(F)cc1 [Compound 20u]

>  <LABEL VALUE>
0.0

$$$$
>  <MOLECULE>
Cc1ccc(C(=O)/C=C2\Nc3cc(Cl)ccc3OC2=O)cc1 [Compound 20h]

>  <LABEL VALUE>
1.0

$$$$
>  <MOLECULE>
Cc1cc(Br)c2c(c1)N/C(=C\C(=O)c1ccccc1)C(=O)O2 [Compound 20m]

>  <LABEL VALUE>
0.0

$$$$
>  <MOLECULE>
O=C1Oc2ccc([N+](=O)[O-])cc2N/C1=C\C(=O)c1ccccc1 [Compound 20t]

>  <LABEL VALUE>
1.0

$$$$
>  <MOLECULE>
COc1ccc(C(=O)/C=C2\Nc3cc(Cl)ccc3OC2=O)cc1 [Compound 20i]

>  <LABEL VALUE>
1.0

$$$$
>  <MOLECULE>
O=C1Oc2cc([N+](=O)[O-])ccc2N/C1=C\C(=O)c1ccc(Cl)cc1 [Compound 20y]

>  <LABEL VALUE>
1.0

$$$$
>  <MOLECULE>
Cc1ccc2c(c1)N/C(=C\C(=O)c1ccc(Cl)cc1Cl)C(=O)O2 [Compound 20k]

>  <LABEL VALUE>
1.0

$$$$
